molecular target: Human CD73 (Homo sapiens, UniProt P21589); construct: purchased R&D Systems; host or cells: CHO cells; test: CD73 Enzyme Assay; format: biochemical; settings: 0.25 nM hCD73, 25 μM AMP, kinetic read at 360 nm; read-out: CD73 Enzyme Assay IC50
Sequence (P21589 27-549): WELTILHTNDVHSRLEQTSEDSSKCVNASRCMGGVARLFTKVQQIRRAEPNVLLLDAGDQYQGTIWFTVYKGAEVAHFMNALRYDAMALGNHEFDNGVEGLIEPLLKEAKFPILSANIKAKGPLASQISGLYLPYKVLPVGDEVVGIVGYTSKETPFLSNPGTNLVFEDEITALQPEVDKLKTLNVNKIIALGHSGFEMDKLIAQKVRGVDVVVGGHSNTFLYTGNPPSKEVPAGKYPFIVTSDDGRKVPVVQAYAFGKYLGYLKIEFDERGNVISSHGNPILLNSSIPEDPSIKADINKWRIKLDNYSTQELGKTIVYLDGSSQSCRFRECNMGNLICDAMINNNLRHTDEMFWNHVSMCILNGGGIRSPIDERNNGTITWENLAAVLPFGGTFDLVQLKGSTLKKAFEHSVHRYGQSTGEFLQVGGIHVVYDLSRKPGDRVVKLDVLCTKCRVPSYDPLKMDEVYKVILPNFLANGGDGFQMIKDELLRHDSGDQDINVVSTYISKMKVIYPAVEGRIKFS
Reported IC50 values for the following compounds.

Solved cases below.
- Nc1ncnc2c1ncn2[C@@H]1O[C@H](COCP(=O)(O)O)[C@@H](O)[C@H]1O: > 1000 nM
- CC(C)[C@@H](Nc1nc(Cl)nc2c1ccn2[C@@H]1O[C@H](COCP(=O)(O)O)[C@@H](O)[C@H]1O)c1ccccc1: 10 to 100 nM
- O=P(O)(O)COC[C@H]1O[C@@H](n2cnc3c(-c4ccccc4F)ncnc32)[C@H](O)[C@@H]1O: > 1000 nM
- N#Cc1nc(N2CC3CCCC3C2)c2cnn([C@@H]3O[C@H](CS(=O)(=O)CP(=O)(O)O)[C@@H](O)[C@H]3O)c2n1 (stereo partly shown): < 10 nM
- O=P(O)(O)COC[C@H]1O[C@@H](n2ccc3c(N[C@H]4CCNC4)nc(Cl)nc32)[C@H](O)[C@@H]1O: > 1000 nM

Continue with the compound presented below.
// O=P(O)(O)COC[C@H]1O[C@@H](n2cnc3c(NC4CCCCC4)ncnc32)[C@H](O)[C@@H]1O : IC50 value = 100 to 1000 nM

* * *

Reported pIC50 values for the following compounds.
biological target: Human CD73 (Homo sapiens, UniProt P21589); construct: purchased R&D Systems; host or cells: CHO cells; experiment: CD73 Enzyme Assay; assay type: biochemical; settings: 0.25 nM hCD73, 25 μM AMP, kinetic read at 360 nm; read-out: CD73 Enzyme Assay IC50
pIC50: −log10 of the molar value.

Solved cases below.
- C[C@H](Nc1nc(C#N)nc2c1ccn2[C@@H]1O[C@H](COCP(=O)(O)O)[C@@H](O)[C@H]1O)c1cccc(F)c1 [Compound 75]: > 8.00
- C[C@H](Nc1nc(Cl)nc2c1ccn2[C@@H]1O[C@H](COCP(=O)(O)O)[C@@H](O)[C@H]1O)c1ccccc1 [Compound 60]: > 8.00
- O=P(O)(COC[C@H]1O[C@@H](n2ccc3c(NC4CCCC4)nc(Cl)nc32)[C@H](O)[C@@H]1O)OCC(F)(F)F [Compound 232]: 7.00 to 8.00
- O=P(O)(O)COC[C@H]1O[C@@H](n2ccc3c(Nc4ccccc4)nc(Cl)nc32)[C@H](O)[C@@H]1O [Compound 211]: 6.00 to 7.00
- N#Cc1nc(N2CCOCC2)c2ccn([C@@H]3O[C@H](COCP(=O)(O)O)[C@@H](O)[C@H]3O)c2n1 [Compound 127]: 7.00 to 8.00
- C[C@@H](Nc1nc(C#N)nc2c1ccn2[C@@H]1O[C@H](COCP(=O)(O)O)[C@@H](O)[C@H]1O)c1ccc(F)cn1 [Compound 145]: 6.00 to 7.00
- C[C@@H](Nc1nc(Cl)nc2c1ccn2C1O[C@H](COCP(=O)(O)O)[C@@H](O)[C@H]1O)c1ccc(C2CC2)cc1 (some centres unmarked) [Compound 197]: > 8.00
- C[C@H](Nc1nc(C#N)nc2c1ccn2[C@@H]1O[C@H](COCP(=O)(O)O)[C@@H](O)[C@H]1O)c1ccc(F)cc1 [Compound 72]: > 8.00

Case CCNc1ncnc2c1ncn2[C@@H]1O[C@H](COCP(=O)(O)O)[C@@H](O)[C@H]1O [Compound 17] , Human CD73 (Homo sapiens, UniProt P21589), pIC50 recorded as < 6.00

Case N#Cc1nc(N2CCC(F)(F)C2)c2ccn([C@@H]3O[C@H](COCP(=O)(O)O)[C@@H](O)[C@H]3O)c2n1 [Compound 125] , Human CD73 (Homo sapiens, UniProt P21589), pIC50 recorded as > 8.00

Case O=P(O)(O)COC[C@H]1O[C@@H](n2cnc3c(NC4CCCC4)ncnc32)[C@H](O)[C@@H]1O [Compound 32] , Human CD73 (Homo sapiens, UniProt P21589), pIC50 recorded as 6.00 to 7.00

* * *

Reported pIC50 values for the following compounds.
target: Human CD73 (Homo sapiens); construct: purchased R&D Systems; host or cells: CHO cells; assay: CD73 Enzyme Assay; format: biochemical; details: 0.25 nM hCD73, 25 μM AMP, kinetic read at 360 nm; read-out: CD73 Enzyme Assay IC50
pIC50: −log10 of the molar value.

Solved cases below.
• C[C@H](Nc1nc(C#N)nc2c1ccn2[C@@H]1O[C@H](COCP(=O)(O)O)[C@@H](O)[C@H]1O)c1ccc(C(F)(F)F)cc1 [Compound 147] = 7.00 to 8.00
• CC(C)Nc1nc(Cl)nc2c1ncn2[C@@H]1O[C@H](COCP(=O)(O)O)[C@H]2OC(C)(C)O[C@H]21 [Compound 14] = < 6.00
• CC(C)(C)Nc1ncnc2c1ncn2[C@@H]1O[C@H](COCP(=O)(O)O)[C@@H](O)[C@H]1O [Compound 33] = < 6.00

Case C[C@H](Nc1nc(C#N)nc2c1ncn2[C@@H]1O[C@H](COCP(=O)(O)O)[C@@H](O)[C@H]1O)c1ccccc1 [Compound 36] , Human CD73 (Homo sapiens), pIC50 recorded as 7.00 to 8.00

Case O=P(O)(O)COC[C@H]1O[C@@H](n2cnc3c(-c4ccccc4)ncnc32)[C@H](O)[C@@H]1O [Compound 46] , Human CD73 (Homo sapiens), pIC50 recorded as < 6.00

Case C[C@H](Nc1nc(Cl)nc2c1ccn2[C@@H]1O[C@H](COCP(=O)(O)O)[C@@H](O)[C@H]1O)c1ccc(F)cc1F [Compound 116] , Human CD73 (Homo sapiens), pIC50 recorded as > 8.00

Case O=P(O)(O)COC[C@H]1O[C@@H](n2ccc3c(NC4CCCC4)nc(C#CC4CC4)nc32)[C@H](O)[C@@H]1O [Compound 255] , Human CD73 (Homo sapiens), pIC50 recorded as > 8.00

Case CN(C)CCOc1nc(NC2CCCC2)c2ccn([C@@H]3O[C@H](COCP(=O)(O)O)[C@@H](O)[C@H]3O)c2n1 [Compound 259] , Human CD73 (Homo sapiens), pIC50 recorded as 6.00 to 7.00

Case C[C@H](Nc1nc(Cl)nc2c1c(F)cn2[C@@H]1O[C@H](COCP(=O)(O)O)[C@@H](O)[C@H]1O)c1ccccc1 [Compound 76] , Human CD73 (Homo sapiens), pIC50 recorded as > 8.00

* * *

Reported IC50 values for the following compounds.
biological target: Human CD73 (Homo sapiens); construct: purchased R&D Systems; host or cells: CHO cells; assay: CD73 Enzyme Assay; type: biochemical; conditions: 0.25 nM hCD73, 25 μM AMP, kinetic read at 360 nm; read-out: CD73 Enzyme Assay IC50

Solved cases below.
• C[C@@H](Nc1nc(Cl)nc2c1ccn2[C@@H]1O[C@H](COCP(=O)(O)O)[C@@H](O)[C@H]1O)c1ccc(Cl)cc1 = < 10 nM
• O=P(O)(O)COC[C@H]1O[C@@H](n2ccc3c(NC4CC5CC5C4)nc(Cl)nc32)[C@H](O)[C@@H]1O (some centres unmarked) = < 10 nM

// CC(C)Nc1nc(C#N)nc2c1ncn2[C@@H]1O[C@H](COCP(=O)(O)O)[C@@H](O)[C@H]1O : IC50 value = 10 to 100 nM

// C[C@H](Nc1nc(C#N)nc2c1ccn2[C@@H]1O[C@H](COCP(=O)(O)O)[C@@H](O)[C@H]1O)c1ccc(C#N)cc1 : IC50 value = < 10 nM

// CC(C)N(C)c1ncnc2c1ncn2[C@@H]1O[C@H](COCP(=O)(O)O)[C@@H](O)[C@H]1O : IC50 value = > 1000 nM

// CN(c1nc(Cl)nc2c1ncn2[C@@H]1O[C@H](COCP(=O)(O)O)[C@@H](O)[C@H]1O)C1CCCC1 : IC50 value = < 10 nM

// O=P(O)(O)COC[C@H]1O[C@@H](n2cnc3c(NCc4ccccc4)nc(C4CC4)nc32)[C@H](O)[C@@H]1O : IC50 value = > 1000 nM

// N#Cc1cn([C@@H]2O[C@H](COCP(=O)(O)O)[C@@H](O)[C@H]2O)c2nc(Cl)nc(NC3CCCC3)c12 : IC50 value = 100 to 1000 nM

// Cn1cc(-c2nc(NCc3ccccc3)c3ncn([C@@H]4O[C@H](COCP(=O)(O)O)[C@@H](O)[C@H]4O)c3n2)cn1 : IC50 value = 100 to 1000 nM

// C[C@H](Nc1ncnc2c1ncn2[C@@H]1O[C@H](COCP(=O)(O)O)[C@@H](O)[C@H]1O)c1ccccc1F : IC50 value = 100 to 1000 nM
